// provenance: patent US5021421A

Target: adrenaline (α1) receptor
Experiment: In vitro binding to adrenaline (α1) receptor, [3H] WB-4101
Settings: [3H] WB-4101, rat brain crude synaptosome fraction
Protocol: Dopamine (D2), serotonin (S1, S2) and adrenaline (α1) receptor binding assays were carried out according to the methods of I. Creese et al. [Eur. J. Pharmacol., 46, 377 (1977), S. J. Peroutka et al. [Mol. Pharmacol. 16, 687 (1979)], J. E. Leysen et al. [Mol. Pharmacol., 21, 301 (1982)] and D. C. U'Prichard et al. [Mol. Pharmacol., 13, 454 (1977)], respectively. Crude synaptosome fractions were prepared from some brain regions in rats for receptor sources. […]
quantity-measured: IC50 (nM)
Field: numeric (nM). Do not append units.

Value (IC50, adrenaline (α1) receptor) for record CCN1CCN(c2cc(-c3ccc(F)cc3)c3c(n2)CCCCC3)CC1 [Example 25] = 120

Value (IC50, adrenaline (α1) receptor) for record CCN1CCN(c2cc(-c3ccc(F)cc3)c3c(n2)CCCCCC3)CC1 [Example 1a] = 83

Value (IC50, adrenaline (α1) receptor) for record c1ccc(-c2cc(N3CCNCC3)nc3c2CCCCC3)cc1 [Example 96] = 1100
